- Study Target: T1, cynomolgus monkey PD-L1 on CHO-K1 cells overexpressing cynomolgus monkey PD-L1 (cynomolgus monkey, UniProt G7PSE7 19-290)
- T1 construct: also called CHO-K1/cynoPD-L1; GenScript M00573
- T1 sequence (G7PSE7 entry or part of it limits assumed): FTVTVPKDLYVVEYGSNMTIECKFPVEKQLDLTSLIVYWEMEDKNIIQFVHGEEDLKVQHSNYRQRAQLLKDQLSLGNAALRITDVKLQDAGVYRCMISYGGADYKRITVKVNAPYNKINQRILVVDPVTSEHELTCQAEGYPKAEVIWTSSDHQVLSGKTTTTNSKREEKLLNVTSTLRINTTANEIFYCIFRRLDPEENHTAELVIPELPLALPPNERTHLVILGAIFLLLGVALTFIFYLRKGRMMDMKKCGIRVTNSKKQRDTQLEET
- Protocol Summary: flow cytometry on CHO-K1 cells overexpressing cynomolgus monkey PD-L1 (CHO-K1/cynoPD-L1)
Entries and their measured EC50 follow.
Field format: number, assumed nM, no unit text.

PR005872 (antibody, human IgG1, V domains shown, The HC entry is used) VH: QVQLVESGGGVVQPGMSLRLSCAASGFTFSSYGMYWVRQAPGKGQEWVASIRYTGTEKHYADSVKGRFTISRDNSKNTLYLEMNSLRVEDTAVYYCAKNRAIFGVIPDDSDIRGQGTMVTVSS: 0.733

Briefly, EC50 measured for PR005878 (antibody, human IgG1, V domains shown, The HC entry is used) VH: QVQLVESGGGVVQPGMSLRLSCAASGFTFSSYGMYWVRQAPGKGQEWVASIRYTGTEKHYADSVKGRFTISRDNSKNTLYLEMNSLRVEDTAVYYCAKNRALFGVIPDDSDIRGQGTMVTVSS : 0.894
